Sourced from ChEMBL document CHEMBL1201862

The entries below are paired with their reported GI50.
system: M14; experiment: NCI tumour cell line growth inhibition, 48 h
The source made the active and inactive calls. Cut-off read from the data, not from the text of the source: active = GI50 up to about 1.1 µM and inactive = higher.

compound | testedSystem | GI50
CNC(=S)NNc1ncnc2c1ncn2-c1ccc(C)cc1 | M14 | > 100 µM (inactive)
COc1cc(-c2nc3cc(F)ccc3s2)ccc1O | M14 | 58.3 µM (inactive)
CCOC(=O)C1CCn2c(nc3c(=O)n(C)c(=O)n(C)c32)S1 (configuration not stated) | M14 | > 100 µM (inactive)
Cc1cn2c(/C=N/NC(=N)N)c(-c3ccc(Cl)c([N+](=O)[O-])c3)nc2s1 | M14 | 1.63 µM (inactive)
N#CC1=C(Cl)NC(Cl)=C(C#N)C1c1ccc(Cl)cc1 | M14 | 16.8 µM (inactive)
Cc1c(NC(=O)Nc2c(Cl)cccc2Cl)c(=O)n(-c2ccccc2)n1C | M14 | > 100 µM (inactive)
COc1ccc(/C=C2/SC(c3ccccc3)N(NC(=O)CCCCCCCCC(=O)NN3C(=O)/C(=C\c4ccc(OC)c(OC)c4)SC3c3ccccc3)C2=O)cc1OC (configuration not stated) | M14 | > 100 µM (inactive)
Cc1nc(C)c(C(=O)NNC(=O)Cc2ccccc2)cc1C(=O)NNC(=O)Cc1ccccc1 | M14 | > 100 µM (inactive)
N=C(N)SCc1nc(-c2ccc(Cl)cc2)no1 | M14 | 16.8 µM (inactive)
N#CC1C(=O)NC2=C(CCOc3c2ccc2ccccc32)C1c1ccc(F)cc1 (configuration not stated) | M14 | 26.1 µM (inactive)
O=C(c1ccccc1)C1N=NN(Cc2ccccc2[N+](=O)[O-])C1C(=O)c1ccccc1 (configuration not stated) | M14 | > 100 µM (inactive)
COC(=O)C1OC2(CCCC3CC32)O[C@H]1C(=O)OC (some centres not stated) | M14 | > 100 µM (inactive)

###

The entries below are paired with their reported GI50.
system: DU-145; test: NCI tumour cell line growth inhibition, 48 h
Activity calls are given as the source filed them. Cut-off read from the data, not from the text of the source: active = GI50 up to about 1.1 µM and inactive = higher. Residues, ends and D or L forms follow the SMILES beside them. *: point of attachment. Boc = CC(C)(C)OC(=O)*
property: GI50

compound | testedSystem | property | measValue
CC(C)(C)c1ccc(O)c(CN(Cc2cc(C(C)(C)C)ccc2O)C2CCCCC2)c1 | DU-145 | GI50 | 19.5 µM (inactive)
O=C1N/C(=N/N=C/C(O)C(O)C(O)C(O)CO)N/C1=C\c1cccs1 (configuration not stated) | DU-145 | GI50 | > 100 µM (inactive)
COc1cc(CC2CC(c3ccc4c(c3)OCO4)OC2=O)cc(OC)c1OC (configuration not stated) | DU-145 | GI50 | > 100 µM (inactive)
COc1cc(OC)nc(-n2c(N)c(C(=O)O)c3ccc([N+](=O)[O-])cc3c2=O)n1 | DU-145 | GI50 | > 100 µM (inactive)
O=C(c1cccc2ccccc12)C1S(=O)(=O)OCCOS1(=O)=O | DU-145 | GI50 | > 100 µM (inactive)
CC1CCC2C(C(=O)O[C@H]3C4CCO[C@@H](OC5OC(CO)C(O)C(O)C5O)C4[C@@]4(CO)O[C@@H]34)=CO[C@@H](OC3OC(CO)C(O)C(O)C3O)C12 (some centres not stated) | DU-145 | GI50 | > 10 µM (inactive)
CC(NC(=O)C(NC(=O)OC(C)(C)C)C(C)C)C(=O)N1CCCC1C(=O)NCC(=O)NC(C(=O)NCC(=O)O)C(C)C (configuration not stated) (Boc-VAPGVG-OH; configuration not given here) | DU-145 | GI50 | > 100 µM (inactive)
